Values compiled from ChEMBL document CHEMBL1926655.

// reported pKi for each item listed
TARGET_SYSTEM: Sigma non-opioid intracellular receptor 1 (Rattus norvegicus, UniProt Q9R0C9)
Sequence (Q9R0C9 whole entry): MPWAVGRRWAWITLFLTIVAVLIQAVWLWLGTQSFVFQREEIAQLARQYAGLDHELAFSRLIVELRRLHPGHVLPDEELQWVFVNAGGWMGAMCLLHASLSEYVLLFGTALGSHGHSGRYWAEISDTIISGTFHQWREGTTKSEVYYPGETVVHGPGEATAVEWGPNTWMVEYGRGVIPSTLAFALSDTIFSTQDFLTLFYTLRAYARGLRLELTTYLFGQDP
TEST_NAME: Displacement of (+)-[3H]pentazocine from sigma 1 receptor in rat liver membrane after 1.5 hrs by scintillation counting
Format: cell membranes
pKi field: float, defined as -log10 of concentration (mol/L).

The following compounds have reported results that may help.
[[record]]
structure_smiles = "COc1c(I)ccc(C(=O)NCCCCN2CCc3ccc([N+](=O)[O-])cc3C2)c1O"
observed_value = 4.13

[[record]]
structure_smiles = "COc1cc2c(cc1OC)CN(CCCCNC(=O)c1ccc([N+](=O)[O-])cc1)CC2"
observed_value = 4.83

[[record]]
structure_smiles = "COc1cccc(C(=O)NCCCCN2CCc3ccc([N+](=O)[O-])cc3C2)c1OC"
observed_value = 5.10

[[record]]
structure_smiles = "COc1cc2c(cc1OC)CN(CCCCNC(=O)c1cccc([N+](=O)[O-])c1)CC2"
observed_value = 2.92

[[record]]
structure_smiles = "COc1cccc(C(=O)NCCCCN2CCc3ccc([N+](=O)[O-])cc3C2)c1O"
observed_value = 4.95


Incoming: Request: pKi, test system Sigma non-opioid intracellular receptor 1 (Rattus norvegicus, UniProt Q9R0C9), entry `COc1ccc(C(=O)NCCCCN2CCc3ccc([N+](=O)[O-])cc3C2)c(OC)c1OC`
Outgoing: 4.99

Incoming: How about `O=C1c2ccccc2C(=O)N1CCCCN1CCc2ccc([N+](=O)[O-])cc2C1` ?
Outgoing: 7.06

Incoming: How about `COc1cc2c(cc1OC)CN(CCCCNC(=O)c1cccc(OC)c1O)CC2` ?
Outgoing: 4.17
